I'd be grateful if you could share measured viability, T/C for these entries.
tested on: 817829-284-R-J1-PDC complex spheroid viability; test: Anticancer human tumor 817829-284-R-J1-PDC patient-derived colon adenocarcinoma cell line growth inhibition [POLQ]; settings: second compound 10 µM; first compound 0.316 µM; stronger effect = lower value
Numbers only, in %.

Below are worked cases with known answers.
compound	units text	viability, T/C
C=CCn1c(=O)c2cnc(Nc3ccc(N4CCN(C)CC4)cc3)nc2n1-c1cccc(C(C)(C)O)n1 + Cc1cccc(N(C)C(=O)C2C(O)CCN2c2nc(C)cc(C(F)(F)F)c2C#N)c1	%	39.5
C=CC(=O)N1CCN(c2nc(=O)n(-c3c(C)ccnc3C(C)C)c3nc(-c4c(O)cccc4F)c(F)cc23)C(C)C1 (stereo not drawn) + COC1C(OC(N)=O)C(O)C(Oc2ccc3c(O)c(NC(=O)c4ccc(O)c(CC=C(C)C)c4)c(=O)oc3c2C)OC1(C)C	%	80.7

Prompt line: Field: viability, T/C (817829-284-R-J1-PDC complex spheroid viability). Entry: COc1cc(C2c3cc4c(cc3C(OC3OC5COC(C)OC5C(O)C3O)C3COC(=O)C23)OCO4)cc(OC)c1O (stereo not drawn) + COC1C(OC(N)=O)C(O)C(Oc2ccc3c(O)c(NC(=O)c4ccc(O)c(CC=C(C)C)c4)c(=O)oc3c2C)OC1(C)C
Response line: 17.9

* * *

Tested on: 817829-284-R-J1-PDC complex spheroid viability
Experiment: Anticancer human tumor 817829-284-R-J1-PDC cell line growth inhibition [POLQ];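 further: spheroids exposed to compounds for 7 days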
Conditions: curve of first compound; second compound 3.16 µM
Experimental: Multicellular complex tumor spheroid response to Polymerase (POL) inhibitors (novobiocin, ART-558, RP6685) in combination with a variety of drugs and investigational agents in selected tumor cell lines The POL inhibitors (novobiocin, ART-558, and RP6685) were evaluated both individually and in combination with standard of care and investigational anticancer small molecules within a complex spheroid model of solid tumors. . […]
So I've got a bunch of molecules here, and I need their IC50 values.

Solved cases below.
molecule	subject of test	value reported
CC(=O)O[C@H]1C(=O)[C@@]2(C)[C@H]([C@H](OC(=O)c3ccccc3)[C@]3(O)C[C@H](OC(=O)[C@H](O)[C@@H](NC(=O)c4ccccc4)c4ccccc4)C(C)=C1C3(C)C)[C@]1(OC(C)=O)CO[C@@H]1C[C@@H]2O + Nc1ccc(C#CCN(C(=O)Cc2ncc(C(F)(F)F)cc2C(F)(F)F)c2ccc(F)cc2)nn1	817829-284-R-J1-PDC complex spheroid viability	< 0.00949 µM
Nc1ccn(C2OC(CO)C(O)C2(F)F)c(=O)n1 (stereo not given) + Nc1ccc(C#CCN(C(=O)Cc2ncc(C(F)(F)F)cc2C(F)(F)F)c2ccc(F)cc2)nn1	817829-284-R-J1-PDC complex spheroid viability	< 0.0316 µM
CCc1cc2c(N3CCc4c(cc(Cn5ccnc5)cc4-c4cn(C)nc4C(F)(F)F)C3=O)ccnc2c(OC)n1 + Nc1ccc(C#CCN(C(=O)Cc2ncc(C(F)(F)F)cc2C(F)(F)F)c2ccc(F)cc2)nn1	817829-284-R-J1-PDC complex spheroid viability	3.44 µM
COc1cc2cc(C(=O)CCC(=O)O)sc2cc1OC + Cc1cccc(N(C)C(=O)C2C(O)CCN2c2nc(C)cc(C(F)(F)F)c2C#N)c1	817829-284-R-J1-PDC complex spheroid viability	> 10 µM

Prompt line: Report IC50 for O=C(Nc1ccc(O)c(NS(=O)(=O)c2ccc(F)cc2)c1)c1ccc(-c2ccccc2)cc1 + COC1C(OC(N)=O)C(O)C(Oc2ccc3c(O)c(NC(=O)c4ccc(O)c(CC=C(C)C)c4)c(=O)oc3c2C)OC1(C)C tested on 817829-284-R-J1-PDC complex spheroid viability.
Response line: 6.53 µM
